Values were extracted from paper PMC12281475.

TARGET: CDK13_CycK (Homo sapiens, UniProt Q14004)
Construct: purchased Reaction Biology
Sequence (Q14004 whole entry): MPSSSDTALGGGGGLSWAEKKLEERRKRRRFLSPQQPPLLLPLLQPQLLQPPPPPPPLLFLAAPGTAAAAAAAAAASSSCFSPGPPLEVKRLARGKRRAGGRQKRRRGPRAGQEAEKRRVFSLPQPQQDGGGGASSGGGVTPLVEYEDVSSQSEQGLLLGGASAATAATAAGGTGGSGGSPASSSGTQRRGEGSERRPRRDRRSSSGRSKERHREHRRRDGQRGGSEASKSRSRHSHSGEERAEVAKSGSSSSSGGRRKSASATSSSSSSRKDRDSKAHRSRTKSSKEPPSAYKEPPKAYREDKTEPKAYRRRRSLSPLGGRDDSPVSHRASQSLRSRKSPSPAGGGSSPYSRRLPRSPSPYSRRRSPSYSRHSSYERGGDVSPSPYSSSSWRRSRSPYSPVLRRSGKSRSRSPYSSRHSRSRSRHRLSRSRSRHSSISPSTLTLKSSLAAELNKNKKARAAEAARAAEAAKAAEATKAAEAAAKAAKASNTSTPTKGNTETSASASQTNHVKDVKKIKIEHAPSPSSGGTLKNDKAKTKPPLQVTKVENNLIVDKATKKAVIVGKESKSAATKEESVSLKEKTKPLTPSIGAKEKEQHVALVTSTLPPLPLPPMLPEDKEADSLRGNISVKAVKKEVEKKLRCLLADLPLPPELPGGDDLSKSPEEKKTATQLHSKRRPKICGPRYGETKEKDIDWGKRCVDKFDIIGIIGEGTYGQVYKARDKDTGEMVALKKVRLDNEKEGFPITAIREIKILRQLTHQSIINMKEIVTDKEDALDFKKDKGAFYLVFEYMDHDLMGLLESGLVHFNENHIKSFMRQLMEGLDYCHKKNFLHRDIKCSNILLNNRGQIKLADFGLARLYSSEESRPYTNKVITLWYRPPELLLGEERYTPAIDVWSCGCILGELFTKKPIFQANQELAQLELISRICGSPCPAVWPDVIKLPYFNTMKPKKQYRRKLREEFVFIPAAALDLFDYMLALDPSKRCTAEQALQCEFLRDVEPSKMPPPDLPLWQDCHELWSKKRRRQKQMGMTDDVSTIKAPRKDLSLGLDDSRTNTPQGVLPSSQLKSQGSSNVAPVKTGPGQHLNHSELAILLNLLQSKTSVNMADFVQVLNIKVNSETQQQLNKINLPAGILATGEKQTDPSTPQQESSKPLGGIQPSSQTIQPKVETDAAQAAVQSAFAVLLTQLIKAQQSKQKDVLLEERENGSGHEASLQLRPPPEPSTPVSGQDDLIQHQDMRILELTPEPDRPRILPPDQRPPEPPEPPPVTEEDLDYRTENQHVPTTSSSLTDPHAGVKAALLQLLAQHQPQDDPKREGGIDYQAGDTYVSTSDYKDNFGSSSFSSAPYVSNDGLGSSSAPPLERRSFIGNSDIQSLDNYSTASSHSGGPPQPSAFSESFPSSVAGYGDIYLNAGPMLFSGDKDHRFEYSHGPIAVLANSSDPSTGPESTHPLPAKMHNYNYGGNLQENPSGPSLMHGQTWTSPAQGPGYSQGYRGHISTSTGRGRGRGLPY
Sequence (O75909 whole entry partner): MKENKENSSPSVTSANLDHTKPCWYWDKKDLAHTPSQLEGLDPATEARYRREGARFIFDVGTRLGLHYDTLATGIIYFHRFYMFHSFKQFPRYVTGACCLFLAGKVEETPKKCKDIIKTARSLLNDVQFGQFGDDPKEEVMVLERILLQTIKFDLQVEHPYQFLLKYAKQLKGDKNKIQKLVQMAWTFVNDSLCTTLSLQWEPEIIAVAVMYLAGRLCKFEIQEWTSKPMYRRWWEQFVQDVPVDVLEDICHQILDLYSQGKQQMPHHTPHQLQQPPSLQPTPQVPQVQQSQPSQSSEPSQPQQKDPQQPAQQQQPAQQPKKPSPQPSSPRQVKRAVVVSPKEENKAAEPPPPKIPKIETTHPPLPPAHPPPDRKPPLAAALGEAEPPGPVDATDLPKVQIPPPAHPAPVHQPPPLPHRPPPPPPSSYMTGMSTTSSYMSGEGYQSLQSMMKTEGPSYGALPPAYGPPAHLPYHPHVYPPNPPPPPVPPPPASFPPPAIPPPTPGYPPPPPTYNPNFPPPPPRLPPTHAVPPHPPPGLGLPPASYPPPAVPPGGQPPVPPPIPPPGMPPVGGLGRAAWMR
MEASUREMENT PROTOCOL: Radiometric protein kinase assay (33PanQinase), CDK13_CycK
Format: biochemical
CONDITION: highest assay concentration 1.00E-05 M; read-out: IC50

{"COMPOUND": "Cc1c(Br)c(Br)c2c3c1nc(N1CCNCC1)n3CCC2.Cl [SEL120-34A, reference compound]", "TARGET": "CDK13_CycK (Homo sapiens, UniProt Q14004)", "IC50, µM": 0.292}

* * *

TARGET: CDK1_CycE1 (Homo sapiens)
Construct: purchased Reaction Biology
Sequence (P06493 whole entry): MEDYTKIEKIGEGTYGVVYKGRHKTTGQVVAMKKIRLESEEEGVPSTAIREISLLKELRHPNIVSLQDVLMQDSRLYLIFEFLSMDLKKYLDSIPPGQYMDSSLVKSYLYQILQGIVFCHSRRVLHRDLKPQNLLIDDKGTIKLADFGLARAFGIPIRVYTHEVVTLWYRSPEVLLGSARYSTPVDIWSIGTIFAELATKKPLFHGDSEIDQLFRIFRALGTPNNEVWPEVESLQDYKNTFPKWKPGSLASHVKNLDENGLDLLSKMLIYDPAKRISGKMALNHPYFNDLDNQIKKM
Sequence (P24864 whole entry partner): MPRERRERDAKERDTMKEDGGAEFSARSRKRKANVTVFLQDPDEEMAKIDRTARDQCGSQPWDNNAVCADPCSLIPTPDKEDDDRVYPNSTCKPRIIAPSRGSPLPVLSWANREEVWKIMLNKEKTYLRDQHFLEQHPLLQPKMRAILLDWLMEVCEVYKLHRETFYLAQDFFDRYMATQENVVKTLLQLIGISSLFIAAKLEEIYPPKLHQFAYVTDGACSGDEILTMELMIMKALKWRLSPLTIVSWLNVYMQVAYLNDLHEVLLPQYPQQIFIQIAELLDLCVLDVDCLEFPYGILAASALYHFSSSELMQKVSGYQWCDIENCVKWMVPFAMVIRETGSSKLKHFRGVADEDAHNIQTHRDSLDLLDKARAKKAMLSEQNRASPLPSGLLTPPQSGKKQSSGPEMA
MEASUREMENT PROTOCOL: Radiometric protein kinase assay (33PanQinase), CDK1_CycE1
Type: biochemical
CONDITION: highest assay concentration 1.00E-05 M; read-out: IC50
OBSERVABLE: IC50

{"COMPOUND": "Cc1c(Br)c(Br)c2c3c1nc(N1CCNCC1)n3CCC2.Cl [SEL120-34A, reference compound]", "TEST VALUE": "5 µM"}
{"COMPOUND": "CN1CCN(C(=O)c2ccc3cc(CCNc4ncnc5ccc(C#N)cc45)ccc3c2)CC1 [Senexin B, reference compound]", "TEST VALUE": "> 10 µM"}
{"COMPOUND": "Cn1ncc2cc(-c3cnc(N)c(Cl)c3N3CCC4(CCNC4=O)CC3)ccc21 [CCT251921]", "TEST VALUE": "> 10 µM"}
{"COMPOUND": "Cn1cc(-c2ccc(-c3cncc(Cl)c3N3CCC4(CCNC4=O)CC3)cc2)cn1 [CCT251545]", "TEST VALUE": "> 10 µM"}

* * *

Read-out record for UniProtKB P06493: pIC50
pIC50: −log10 of the molar value.
OBSERVABLE: pIC50

{"COMPOUND": "Cc1n[nH]c2ncc(C(=O)N3CCC[C@H]3c3ccc(Cl)cc3)cc12", "TEST VALUE": "< 5.00"}
{"COMPOUND": "Cc1c(Br)c(Br)c2c3c1nc(N1CCNCC1)n3CCC2.Cl [SEL120-34A, reference compound]", "TEST VALUE": 5.12}
{"COMPOUND": "Cn1ncc2cc(-c3cnc(N)c(Cl)c3N3CCC4(CCNC4=O)CC3)ccc21", "TEST VALUE": "< 5.00"}
{"COMPOUND": "Cn1cc(-c2ccc(-c3cncc(Cl)c3N3CCC4(CCNC4=O)CC3)cc2)cn1", "TEST VALUE": "< 5.00"}

* * *

TARGET: CDK9_CycT1 (Homo sapiens)
Construct: purchased Reaction Biology
Sequence (P50750 whole entry): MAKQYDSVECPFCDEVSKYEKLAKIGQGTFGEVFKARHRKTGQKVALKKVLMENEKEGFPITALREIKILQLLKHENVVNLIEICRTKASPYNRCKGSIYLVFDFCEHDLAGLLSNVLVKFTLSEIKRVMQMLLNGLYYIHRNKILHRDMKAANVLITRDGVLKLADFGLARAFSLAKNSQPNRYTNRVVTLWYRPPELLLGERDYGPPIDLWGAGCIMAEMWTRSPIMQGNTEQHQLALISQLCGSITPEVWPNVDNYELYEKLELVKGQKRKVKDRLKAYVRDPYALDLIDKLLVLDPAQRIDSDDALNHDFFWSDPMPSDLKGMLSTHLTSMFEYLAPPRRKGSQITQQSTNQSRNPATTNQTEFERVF
Sequence (O60563 whole entry partner): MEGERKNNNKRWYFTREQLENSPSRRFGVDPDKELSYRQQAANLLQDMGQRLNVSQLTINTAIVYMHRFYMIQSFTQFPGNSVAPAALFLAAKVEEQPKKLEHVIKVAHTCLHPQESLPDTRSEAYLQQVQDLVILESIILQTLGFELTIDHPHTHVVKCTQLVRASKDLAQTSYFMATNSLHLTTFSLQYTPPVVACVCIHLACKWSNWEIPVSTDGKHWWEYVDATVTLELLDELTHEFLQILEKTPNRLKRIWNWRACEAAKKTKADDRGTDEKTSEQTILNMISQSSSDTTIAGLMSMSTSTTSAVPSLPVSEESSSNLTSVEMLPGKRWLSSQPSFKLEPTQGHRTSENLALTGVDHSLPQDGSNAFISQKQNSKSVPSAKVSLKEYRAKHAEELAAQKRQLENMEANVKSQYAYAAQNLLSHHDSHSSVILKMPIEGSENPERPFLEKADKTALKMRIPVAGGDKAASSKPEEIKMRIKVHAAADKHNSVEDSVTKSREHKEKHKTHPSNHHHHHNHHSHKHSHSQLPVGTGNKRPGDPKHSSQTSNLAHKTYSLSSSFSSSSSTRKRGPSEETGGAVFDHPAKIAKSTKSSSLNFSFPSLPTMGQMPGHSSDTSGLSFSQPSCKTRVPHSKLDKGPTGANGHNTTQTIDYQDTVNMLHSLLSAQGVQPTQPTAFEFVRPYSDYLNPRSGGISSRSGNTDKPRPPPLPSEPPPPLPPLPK
MEASUREMENT PROTOCOL: Radiometric protein kinase assay (33PanQinase), CDK9_CycT1
Format: biochemical
CONDITION: slope of the IC50 fit
Catalogue of molecules with associated Hill Slope
OBSERVABLE: Hill Slope

{"MOLECULE": "Cc1c(Br)c(Br)c2c3c1nc(N1CCNCC1)n3CCC2.Cl [SEL120-34A, reference compound]", "TEST VALUE": -1.23}
{"MOLECULE": "Cn1cc(-c2ccc(-c3cncc(Cl)c3N3CCC4(CCNC4=O)CC3)cc2)cn1 [CCT251545]", "TEST VALUE": -0.94}
{"MOLECULE": "Cc1n[nH]c2ncc(C(=O)N3CCC[C@H]3c3ccc(Cl)cc3)cc12 [MSC2530818]", "TEST VALUE": -1.26}
{"MOLECULE": "Cn1ncc2cc(-c3cnc(N)c(Cl)c3N3CCC4(CCNC4=O)CC3)ccc21 [CCT251921]", "TEST VALUE": -1.01}
{"MOLECULE": "CN1CCN(C(=O)c2ccc3cc(CCNc4ncnc5ccc(C#N)cc45)ccc3c2)CC1 [Senexin B, reference compound]", "TEST VALUE": -0.82}

* * *

Read-out record for CDK15_CycA2 (Homo sapiens, UniProt Q96Q40): IC50
OBSERVABLE: IC50

{"COMPOUND": "Cc1n[nH]c2ncc(C(=O)N3CCC[C@H]3c3ccc(Cl)cc3)cc12", "OBSERVABLE": "IC50", "TEST VALUE": "> 10 µM"}
{"COMPOUND": "Cc1c(Br)c(Br)c2c3c1nc(N1CCNCC1)n3CCC2.Cl [SEL120-34A, reference compound]", "OBSERVABLE": "IC50", "TEST VALUE": "7.49 µM"}
{"COMPOUND": "Cn1cc(-c2ccc(-c3cncc(Cl)c3N3CCC4(CCNC4=O)CC3)cc2)cn1", "OBSERVABLE": "IC50", "TEST VALUE": "> 10 µM"}
{"COMPOUND": "CN1CCN(C(=O)c2ccc3cc(CCNc4ncnc5ccc(C#N)cc45)ccc3c2)CC1 [Senexin B, reference compound]", "OBSERVABLE": "IC50", "TEST VALUE": "> 10 µM"}
{"COMPOUND": "Cn1ncc2cc(-c3cnc(N)c(Cl)c3N3CCC4(CCNC4=O)CC3)ccc21", "OBSERVABLE": "IC50", "TEST VALUE": "> 10 µM"}

* * *

TARGET: CDK8_CycC (Homo sapiens, UniProt P49336)
Construct: purchased Reaction Biology
Sequence (P49336 whole entry): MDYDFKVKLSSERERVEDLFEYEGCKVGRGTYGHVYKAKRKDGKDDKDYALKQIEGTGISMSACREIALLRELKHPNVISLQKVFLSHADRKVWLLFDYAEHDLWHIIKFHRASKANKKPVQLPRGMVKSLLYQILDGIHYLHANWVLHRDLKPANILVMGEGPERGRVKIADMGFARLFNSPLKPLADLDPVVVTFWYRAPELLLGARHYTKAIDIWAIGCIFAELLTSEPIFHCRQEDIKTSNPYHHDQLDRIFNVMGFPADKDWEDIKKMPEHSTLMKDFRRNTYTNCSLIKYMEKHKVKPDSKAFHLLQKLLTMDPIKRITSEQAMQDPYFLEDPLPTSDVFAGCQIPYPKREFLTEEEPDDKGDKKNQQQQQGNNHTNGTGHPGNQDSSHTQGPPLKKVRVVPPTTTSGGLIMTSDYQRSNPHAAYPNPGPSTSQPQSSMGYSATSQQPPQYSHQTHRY
Sequence (P24863 whole entry partner): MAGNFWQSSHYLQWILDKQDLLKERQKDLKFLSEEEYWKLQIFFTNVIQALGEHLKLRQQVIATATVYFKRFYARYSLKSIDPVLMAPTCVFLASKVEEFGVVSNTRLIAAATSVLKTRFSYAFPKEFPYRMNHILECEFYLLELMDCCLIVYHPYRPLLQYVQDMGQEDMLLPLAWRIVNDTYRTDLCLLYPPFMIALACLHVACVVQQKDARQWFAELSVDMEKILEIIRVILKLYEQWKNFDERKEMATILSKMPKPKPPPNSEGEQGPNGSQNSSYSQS
MEASUREMENT PROTOCOL: Radiometric protein kinase assay (33PanQinase), CDK8_CycC
Format: biochemical
pIC50: −log10 of the molar value.

{"COMPOUND STRUCTURE STRING": "Cc1n[nH]c2ncc(C(=O)N3CCC[C@H]3c3ccc(Cl)cc3)cc12", "TARGET": "CDK8_CycC (Homo sapiens, UniProt P49336)", "pIC50": 6.94}
{"COMPOUND STRUCTURE STRING": "Cn1cc(-c2ccc(-c3cncc(Cl)c3N3CCC4(CCNC4=O)CC3)cc2)cn1", "TARGET": "CDK8_CycC (Homo sapiens, UniProt P49336)", "pIC50": 7.08}

* * *

Read-out record for CDK20_CycT1 (Homo sapiens, UniProt Q8IZL9): IC50
OBSERVABLE: IC50

{"MOLECULE": "Cc1n[nH]c2ncc(C(=O)N3CCC[C@H]3c3ccc(Cl)cc3)cc12 [MSC2530818]", "TEST VALUE": "> 10 µM"}
{"MOLECULE": "Cc1c(Br)c(Br)c2c3c1nc(N1CCNCC1)n3CCC2.Cl [SEL120-34A, reference compound]", "TEST VALUE": "1.12 µM"}
{"MOLECULE": "CN1CCN(C(=O)c2ccc3cc(CCNc4ncnc5ccc(C#N)cc45)ccc3c2)CC1 [Senexin B, reference compound]", "TEST VALUE": "> 10 µM"}
{"MOLECULE": "Cn1ncc2cc(-c3cnc(N)c(Cl)c3N3CCC4(CCNC4=O)CC3)ccc21 [CCT251921]", "TEST VALUE": "> 10 µM"}
{"MOLECULE": "Cn1cc(-c2ccc(-c3cncc(Cl)c3N3CCC4(CCNC4=O)CC3)cc2)cn1 [CCT251545]", "TEST VALUE": "> 10 µM"}

* * *

TARGET: UniProt:Q8IZL9
MEASUREMENT PROTOCOL: Radiometric protein kinase assay (33PanQinase), CDK20_CycH
Format: biochemical
CONDITION: slope of the IC50 fit

{"COMPOUND": "Cn1cc(-c2ccc(-c3cncc(Cl)c3N3CCC4(CCNC4=O)CC3)cc2)cn1", "TARGET": "UniProt:Q8IZL9", "Hill Slope": -0.44}
{"COMPOUND": "Cc1n[nH]c2ncc(C(=O)N3CCC[C@H]3c3ccc(Cl)cc3)cc12", "TARGET": "UniProt:Q8IZL9", "Hill Slope": -0.81}
{"COMPOUND": "CN1CCN(C(=O)c2ccc3cc(CCNc4ncnc5ccc(C#N)cc45)ccc3c2)CC1 [Senexin B, reference compound]", "TARGET": "UniProt:Q8IZL9", "Hill Slope": -0.32}
{"COMPOUND": "Cc1c(Br)c(Br)c2c3c1nc(N1CCNCC1)n3CCC2.Cl [SEL120-34A, reference compound]", "TARGET": "UniProt:Q8IZL9", "Hill Slope": -0.52}
{"COMPOUND": "Cn1ncc2cc(-c3cnc(N)c(Cl)c3N3CCC4(CCNC4=O)CC3)ccc21", "TARGET": "UniProt:Q8IZL9", "Hill Slope": -0.38}

* * *

TARGET: CDK8_CycC (Homo sapiens)
Construct: purchased Reaction Biology
MEASUREMENT PROTOCOL: Radiometric protein kinase assay (33PanQinase), CDK8_CycC
Type: biochemical
CONDITION: slope of the IC50 fit
OBSERVABLE: Hill Slope

{"COMPOUND": "Cc1n[nH]c2ncc(C(=O)N3CCC[C@H]3c3ccc(Cl)cc3)cc12", "TEST VALUE": -0.45}
{"COMPOUND": "Cn1ncc2cc(-c3cnc(N)c(Cl)c3N3CCC4(CCNC4=O)CC3)ccc21", "TEST VALUE": -0.55}
{"COMPOUND": "CN1CCN(C(=O)c2ccc3cc(CCNc4ncnc5ccc(C#N)cc45)ccc3c2)CC1 [Senexin B, reference compound]", "TEST VALUE": -0.56}
{"COMPOUND": "Cn1cc(-c2ccc(-c3cncc(Cl)c3N3CCC4(CCNC4=O)CC3)cc2)cn1", "TEST VALUE": -0.56}
{"COMPOUND": "Cc1c(Br)c(Br)c2c3c1nc(N1CCNCC1)n3CCC2.Cl [SEL120-34A, reference compound]", "TEST VALUE": -0.81}
